system: SF-539 CNS; test: NCI tumour cell line growth inhibition, 48 h
Record 1 (yes) whenever TGI is at 10 µM or higher; record 0 (no) when lower.

>>> cat("CCN(CCO)CCNc1ccc(C)c2sc3ccccc3c(=O)c12")
"1 (yes)"
>>> cat("CC1(C)CCCCCCCCCC2CC2CCC(C)(C)C1=O (stereo not given)")
"1 (yes)"
>>> cat("Cc1ccsc1-c1ccc2c(c1)COC2(CCCN(C)C)c1ccc(F)cc1 (stereo not given)")
"0 (no)"

Enquiry: Tell me whether TGI is at least 10 µM here: "Cc1cc(=O)n2c3c(c4c(cc13)c(CN(C)C)cc(=O)n4C)OC2"
Return: 1 (yes)

Enquiry: Tell me whether TGI is at least 10 µM here: "O=C(CSSCC(=O)Nc1ccc(Br)cc1)Nc1ccc(Br)cc1"
Return: 1 (yes)

Enquiry: Tell me whether TGI is at least 10 µM here: "CC1=CC(=O)N(n2c(Cc3ccc(Cl)cc3)n[nH]c2=O)C1=O"
Return: 1 (yes)

Enquiry: Tell me whether TGI is at least 10 µM here: "COc1ccc(Cn2cc3c(c2-c2cc(OC)c(OC)c(OC)c2)CCc2c(CO)noc2-3)cc1"
Return: 0 (no)

Enquiry: Tell me whether TGI is at least 10 µM here: "COc1ccc(-c2[nH]nc(N)c2-c2cc(OC)c(OC)c(OC)c2)cc1"
Return: 0 (no)

Enquiry: Tell me whether TGI is at least 10 µM here: CCC12C=CCN3CCC4(c5cc(C(c6ccc(OC)cc6)C6Cc7ccccc7N6)c(OC)cc5N(C)C4C(O)(C(=O)OC)C1O)C32 (stereo not given)
Return: 1 (yes)

Enquiry: Tell me whether TGI is at least 10 µM here: "Cc1nc2c3c(ccc2[nH]c1=O)C(=O)c1ccccc1C3=O"
Return: 1 (yes)
